Target: UniProt:P11362
Sequence (P11362 whole entry, looked up): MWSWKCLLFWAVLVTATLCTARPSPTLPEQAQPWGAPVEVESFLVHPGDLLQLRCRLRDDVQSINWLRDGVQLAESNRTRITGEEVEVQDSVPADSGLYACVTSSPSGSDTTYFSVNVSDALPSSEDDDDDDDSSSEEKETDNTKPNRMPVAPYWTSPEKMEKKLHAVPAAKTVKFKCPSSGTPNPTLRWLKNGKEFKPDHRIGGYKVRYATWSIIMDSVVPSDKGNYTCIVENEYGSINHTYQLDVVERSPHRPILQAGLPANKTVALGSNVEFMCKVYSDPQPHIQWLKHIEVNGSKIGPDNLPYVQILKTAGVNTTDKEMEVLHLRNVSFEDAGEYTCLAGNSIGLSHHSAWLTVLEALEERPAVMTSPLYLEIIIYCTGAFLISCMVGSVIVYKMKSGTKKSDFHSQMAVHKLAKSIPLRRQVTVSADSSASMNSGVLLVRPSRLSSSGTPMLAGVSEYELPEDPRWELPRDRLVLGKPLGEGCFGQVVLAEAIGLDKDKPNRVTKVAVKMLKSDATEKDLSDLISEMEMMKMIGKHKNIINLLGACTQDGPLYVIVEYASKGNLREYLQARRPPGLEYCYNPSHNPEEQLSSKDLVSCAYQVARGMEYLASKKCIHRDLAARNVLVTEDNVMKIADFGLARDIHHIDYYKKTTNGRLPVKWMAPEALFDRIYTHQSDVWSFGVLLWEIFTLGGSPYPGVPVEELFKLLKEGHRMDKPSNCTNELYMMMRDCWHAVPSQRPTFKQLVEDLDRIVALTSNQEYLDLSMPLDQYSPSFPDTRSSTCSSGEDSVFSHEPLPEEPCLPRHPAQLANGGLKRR
Assay: radiometric filter-binding kinase assay
Settings: compound 10.0 µM
# yes (1) = residual activity below 80% (exclusive); no (0) = residual activity at/above 80%

Example cases with answers are listed next.
O=C(N[C@@H](COc1ccc2[nH]c(=O)[nH]c2c1)c1ccccc1)c1cccn(Cc2ccc(F)c(F)c2)c1=O : yes (1)
CC(C)C[C@H](NC(=O)CNC(=O)c1cc(Cl)ccc1Cl)B1OC(=O)CC(CC(=O)O)(C(=O)O)O1 (stereo not given in full) : yes (1)
CCNc1nc(Nc2cc(F)c(C(=O)N3CCOCC3)cc2OC)ncc1C(F)(F)F : no (0)

Q: Identify whether the compound "N#Cc1c(O)c2c(-c3ccc(-c4ccccc4O)cc3)csc2[nH]c1=O" records residual activity below 80%.
A: no (0)

Q: Identify whether the compound "NC1(c2ccc(-c3nc4ccn5c(=O)[nH]nc5c4cc3-c3ccccc3)cc2)CCC1" records residual activity below 80%.
A: yes (1)

Q: Identify whether the compound "Cc1nc(-c2ccc(OCC(C)C)c(C#N)c2)sc1C(=O)O" records residual activity below 80%.
A: no (0)

Q: Identify whether the compound "c1ccc2c(-c3cnn4cc(-c5ccc(N6CCNCC6)cc5)cnc34)ccnc2c1" records residual activity below 80%.
A: yes (1)

Q: Identify whether the compound "COC(=O)/C=C/C(=O)OC" records residual activity below 80%.
A: no (0)

Q: Identify whether the compound "C[C@H]1CCCC(=O)CCC/C=C/c2cc(O)cc(O)c2C(=O)O1" records residual activity below 80%.
A: yes (1)
